target: Avi-KRAS G12R (1-169) GppNHp/RAF1 RBD-3xFLAG (52-151) (Homo sapiens, UniProt P01116, G12R); construct: Avi-KRAS G12R (1-169); assay: Raf1-KRAS G12R-GppNHP disruption HTRF assay (Biological Example 1); format: binding; settings: KRAS G12R, GppNHp-loaded; Table 11
Sequence (P01116 1-169 isoform P01116-2 G12R): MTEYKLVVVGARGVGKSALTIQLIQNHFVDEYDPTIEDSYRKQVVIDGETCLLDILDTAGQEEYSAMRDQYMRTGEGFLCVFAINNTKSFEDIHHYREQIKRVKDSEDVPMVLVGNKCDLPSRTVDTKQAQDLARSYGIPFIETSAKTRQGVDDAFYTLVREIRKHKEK
pIC50: −log10 of the molar value.
readout-name: pIC50

| compound | readout-name | observed-result |
| --- | --- | --- |
| CCN(CCO)c1nc(OC[C@@H]2C[C@@H](F)CN2C)nc2c(F)c(-c3ccc(F)c4sc(N)c(C#N)c34)c(C(F)(F)F)cc12 | pIC50 | 6.00 to 7.00 |
| CN(c1nc(OC[C@@]23CCCN2C[C@H](F)C3)nc2c(F)c(-c3ccc(F)c4sc(N)c(C#N)c34)c(C(F)(F)F)cc12)[C@@H]1CCS(=O)(=O)C1 | pIC50 | 6.00 to 7.00 |
| N#CC[C@H]1CN(c2nc(OC[C@@]34CCCN3C[C@H](F)C4)nc3c(F)c(-c4ccc(F)c5sc(N)c(C#N)c45)c(C(F)(F)F)cc23)CCO1 | pIC50 | 6.00 to 7.00 |
| CN(CCO)c1nc(OC[C@@]23CCCN2C[C@H](F)C3)nc2c(F)c(-c3ccc(F)c4sc(N)nc34)c(C(F)(F)F)cc12 | pIC50 | 5.00 to 6.00 |
| N#Cc1c(N)sc2c(F)ccc(-c3c(C(F)(F)F)cc4c(N5CCC(F)(F)CC5)nc(OC[C@@]56CCCN5C[C@H](F)C6)nc4c3F)c12 | pIC50 | 6.00 to 7.00 |

// field: pIC50; key: "N#Cc1c(N)sc2c(F)ccc(-c3c(C(F)(F)F)cc4c(N5CCS(=O)(=O)CC5)nc(OC[C@@]56CCCN5C[C@H](F)C6)nc4c3F)c12" ; value = 6.00 to 7.00

Reported pIC50 of "N#Cc1c(N)sc2c(F)ccc(-c3c(C(F)(F)F)cc4c(N5CC[C@@H]5CF)nc(OC[C@@]56CCCN5C[C@H](F)C6)nc4c3F)c12" : 6.00 to 7.00

For reference, reported pIC50 for "CC(=O)N1C[C@@H](N(C)c2nc(OC[C@@]34CCCN3C[C@H](F)C4)nc3c(F)c(-c4ccc(F)c5sc(N)c(C#N)c45)c(C(F)(F)F)cc23)[C@@H](F)C1" stands at 6.00 to 7.00

# pIC50 (compound: "N#Cc1c(N)sc2c(F)ccc(-c3c(C(F)(F)F)cc4c(N5CCCS(=O)(=O)CC5)nc(OC[C@@]56CCCN5C[C@H](F)C6)nc4c3F)c12" ) is > 7.00

Lookup result for "CN(CCCO)c1nc(OC[C@@]23CCCN2C[C@H](F)C3)nc2c(F)c(-c3ccc(F)c4sc(N)c(C#N)c34)c(C(F)(F)F)cc12" ; measured pIC50: 6.00 to 7.00

Measured pIC50, CCN(C)c1nc(OC[C@@]23CCCN2C[C@H](F)C3)nc2c(F)c(-c3ccc(F)c4sc(N)c(C#N)c34)c(C(F)(F)F)cc12 (single isomer, unassigned) [Compound 196] : > 7.00

Source listed as patent US20260042764A1.
